// values below are reported self-cleavage
B1: HDV Ribozyme (parent)
chain: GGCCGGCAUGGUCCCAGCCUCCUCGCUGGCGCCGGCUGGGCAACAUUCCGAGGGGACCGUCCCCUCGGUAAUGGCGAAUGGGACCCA

- Variants of: B1
- Method Notes: self-cleavage, relative activity (ratio to wild type); higher = more cleavage; co-transcriptional
Metric Name: self-cleavage

G6U C14A    0.0692
C36U A51C    0.665
G29U C64G    0.0739
G54C G68U    0.616
G28A C66U    0.138
